Exercise: for every item that follows, state its recorded sodium.
# Tested on: sweet corn (Zea mays var. rugosa) cultivar 'Incredible'
# PROTOCOL: Content analysis of sweet corn ears: crude protein, amino acids, detergent fiber, fatty acids, minerals (Example 1)
# Type: in vivo
# CONDITIONS: POST at b59 rates; every treatment incl. check also got atrazine 560 g ai/ha + COC 1% v/v; relative to treated check (atrazine), check=0

Request: Using the record for COc1cc(OC)nc(NC(=O)NS(=O)(=O)c2ncccc2C(=O)N(C)C)n1 , report its sodium.
Result: 21 % of check

Request: Now try CS(=O)(=O)c1ccc(C(=O)C2C(=O)CCCC2=O)c([N+](=O)[O-])c1 .
Result: 21 % of check

Request: Lookup Cc1c(C(=O)c2cnn(C)c2O)ccc(S(C)(=O)=O)c1C1=NOCC1
Result: 29 % of check

Request: Now consider CCNc1nc(Cl)nc(NC(C)C)n1 .
Result: 0 % of check

###

Please go through the items and note down their Phytotoxicity General.
# Test system: basil 'Genovese'
# PROTOCOL: Visual injury of basil after insecticide, fungicide, PGRs, safeners (Example 4)
# CONDITIONS: 7 DA-A, rates g ai/ha: chlropyrifos 3370, chlorothalonil 7900, paclobutrazol 9.7, mepiquat-chloride 37, Isoxadifen 16, Napthalic anhydride 527, + NIS 0.25 % v/v
Report the value in % with no unit label.

Request: Name the recorded Phytotoxicity General for C[N+]1(C)CCCCC1 [mepiquat-chloride] .
Result: 2

Request: Again, but for CCOP(=S)(OCC)Oc1nc(Cl)c(Cl)cc1Cl
Result: 2

Request: Next: O=C1OC(=O)c2cccc3cccc1c23 [napthalic anhydride]
Result: 7

Request: Repeat for the following molecule: N#Cc1c(Cl)c(Cl)c(Cl)c(C#N)c1Cl
Result: 3

Request: // same read-out, input: CCOC(=O)C1=NOC(c2ccccc2)(c2ccccc2)C1
Result: 7

Request: Continue with CC(C)(C)[C@@H](O)[C@@H](Cc1ccc(Cl)cc1)n1cncn1 (racemic)
Result: 3

###

# System: basil 'Genovese'
# PROTOCOL: Content analysis of basil: protein, minerals (Example 4, Tables 10-11)
# Type: in vivo
# CONDITIONS: 28 DA-A, rates g ai/ha: chlroprifos 3370, chlorothalonil 7900, paclobutrazol 9.7, mepiquat-chloride 37, Isoxadifen 16, Napthalic anhydride 527, + NIS 0.25 % v/v
Label key: 1.0 means Protein, Percent Increase Over the Untreated Check (on a % dry matter basis) under 20 % check; 0.0 means Protein, Percent Increase Over the Untreated Check (on a % dry matter basis) of 20 % check or more.

Request: Please check: Protein, Percent Increase Over the Untreated Check (on a % dry matter basis) for N#Cc1c(Cl)c(Cl)c(Cl)c(C#N)c1Cl , strictly under 20 % check or not?
Result: 1.0

Request: Then C[N+]1(C)CCCCC1 [mepiquat-chloride] ?
Result: 1.0

Request: Try the compound CCOC(=O)C1=NOC(c2ccccc2)(c2ccccc2)C1
Result: 0.0

Request: Try the compound O=C1OC(=O)c2cccc3cccc1c23 [napthalic anhydride]
Result: 1.0

Request: # iterate: CCOP(=S)(OCC)Oc1nc(Cl)c(Cl)cc1Cl
Result: 0.0

Request: Also need CC(C)(C)[C@@H](O)[C@@H](Cc1ccc(Cl)cc1)n1cncn1 (racemic) , thanks.
Result: 1.0
